This listing pairs binders with measured SPOT peptide array binding signal intensity.
target: AgAbp1; experiment: SPOT peptide array binding signal intensity (averaged, normalized) (arbitrary units (background-subtracted, floor 0; scale differs between SH3 domains)); higher = stronger binding of the SH3 domain to the peptide
measurement.type: SPOT peptide array binding signal intensity

binder=NHSRSLFSLPGNQQS op== measured_value=31
binder=MAMRPIPPLPTESEY op== measured_value=9
binder=FYNRTAFQLPGDARV op== measured_value=1.5
binder=LFMKGTPEFPKSGFS op=≤ measured_value=0
binder=MSPLGAPPPPPHKDH op=≤ measured_value=0
binder=DKKTKPTPPPKPSHL op== measured_value=1090
binder=DAPASKPSVPPRNYF op== measured_value=2.5
